Sourced from PubChem BioAssay (EPA / NIEHS)

assay: ATG_DR4_LXR_CIS: Attagene CIS-FACTORIAL HepG2 Assay for human Liver X Receptor (LXR), DR4 submotif (AID 2282929); conditions: HepG2 Attagene DR4 cis-reporter, mRNA transcription; actives raise or lower the signal
Activity calls are given as the source filed them. The calls were made as follows: active = hit-call score of the fitted dose curve at least 0.9, where 1 is the maximum; inactive = score below 0.9.
Possible outcomes: active, inactive

{"compound": "ClCC(Cl)CCl", "group": "inactive"}
{"compound": "N#CN=C(N)N", "group": "inactive"}
{"compound": "Clc1ccc(C2(Cn3cncn3)CC(Br)CO2)c(Cl)c1 (stereo not drawn)", "group": "active"}
{"compound": "CC(=O)C(Cl)C(=O)N(C)C (stereo not drawn)", "group": "inactive"}
{"compound": "CCC1(c2ccc(N)cc2)CCC(=O)NC1=O (stereo not drawn)", "group": "inactive"}
{"compound": "CC(=[OH+])/C=C(/C)[O-].CC(=[OH+])/C=C(/C)[O-].CC(=[OH+])/C=C(/C)[O-].[Fe]", "group": "inactive"}
{"compound": "CCC[CH2][Sn]([Cl])([Cl])[Cl]", "group": "inactive"}
{"compound": "CC(=[OH+])/C=C(/C)[O-].CC(=[OH+])/C=C(/C)[O-].CC(=[OH+])/C=C(/C)[O-].[Al]", "group": "inactive"}
{"compound": "O=C(O)Cc1ccccc1", "group": "inactive"}
{"compound": "COc1cc2c(cc1OC)[C@@]13CCN4CC5=CCO[C@H]6CC(=O)N2[C@H]1[C@H]6[C@H]5C[C@H]43", "group": "inactive"}
{"compound": "COc1ccc(OC)c(C=O)c1", "group": "inactive"}
{"compound": "CC(C)(c1ccc(OCC2CO2)cc1)c1ccc(OCC2CO2)cc1 (stereo not drawn)", "group": "active"}
{"compound": "Nc1ccc(-c2ccc(N)c(Cl)c2)cc1Cl", "group": "inactive"}
{"compound": "N#CCc1ccc(Cl)cc1", "group": "inactive"}
{"compound": "CCOP(=S)(OCC)SCCS(=O)(=O)CC", "group": "inactive"}
{"compound": "COc1ccc(C=O)cc1OC", "group": "inactive"}
{"compound": "O=[N+]([O-])c1ccc(O)c([N+](=O)[O-])c1", "group": "inactive"}
{"compound": "C=CC(=O)OCCCCCC(C)C", "group": "inactive"}
{"compound": "COP(=S)(OC)Oc1c(Cl)cc(C)cc1Cl", "group": "inactive"}
{"compound": "N#Cc1ccccn1", "group": "inactive"}
{"compound": "COc1cc(-c2ccc(N)c(OC)c2)ccc1N", "group": "inactive"}
{"compound": "CC12CC1(C)C(=O)N(c1cc(Cl)cc(Cl)c1)C2=O (stereo not drawn)", "group": "inactive"}
{"compound": "CCCCCCCCC(=O)NCc1ccc(O)c(OC)c1", "group": "active"}
{"compound": "CC1(C)Cc2cccc(O)c2O1", "group": "inactive"}
{"compound": "O=C/C=C/c1ccccc1", "group": "inactive"}
{"compound": "O=C(O)C(F)(F)C(F)(F)C(F)(F)C(F)(F)C(F)(F)C(F)(F)F", "group": "inactive"}
{"compound": "Nc1cccc2ccccc12", "group": "active"}
{"compound": "O=C(c1ccccc1)C(Cl)Cl", "group": "active"}

====

read-out: Interleukin 17A (IL17A), IL17A (gene 3605); assay: BSK_BT_xIL17A: BioMAP Diversity Plus: BT Assay for Interleukin 17A (IL17A) Biomarker Activity (AID 2284229); conditions: primary human B cells with PBMC
Active and inactive are the calls of the source. Rule for the calls: active = hit-call score of the fitted dose curve at least 0.9, where 1 is the maximum; inactive = score below 0.9.
Possible outcomes: active, inactive

{"molecule": "O=C(O)C(F)(F)C(F)(F)C(F)(F)C(F)(F)C(F)(F)C(F)(F)C(F)(F)C(F)(F)C(F)(F)C(F)(F)F", "group": "inactive"}
{"molecule": "O=C(O)CCC(F)(C(F)(F)F)C(F)(F)F", "group": "inactive"}
{"molecule": "Nc1ncc([N+](=O)[O-])s1", "group": "inactive"}
{"molecule": "Nc1ccc(-c2ccc(N)c(Cl)c2)cc1Cl", "group": "active"}
{"molecule": "COc1cc(OC)nc(NC(=O)NS(=O)(=O)c2ncccc2C(=O)N(C)C)n1", "group": "inactive"}
{"molecule": "C(=NC1CCCCC1)=NC1CCCCC1", "group": "active"}
{"molecule": "ClC1=C(Cl)[C@]2(Cl)[C@H]3[C@H]([C@H]4C=C[C@H]3C4)[C@@]1(Cl)C2(Cl)Cl", "group": "active"}
{"molecule": "Nc1cccc2ccccc12", "group": "inactive"}
{"molecule": "COC[C@H](C)N(C(=O)CCl)c1c(C)csc1C", "group": "inactive"}
{"molecule": "CC(C)c1ccc(CO)cc1", "group": "inactive"}
{"molecule": "Oc1ccc(-c2ccccc2)cc1", "group": "inactive"}
{"molecule": "O=S(=O)(c1ccc(Cl)cc1)c1ccc(Cl)cc1", "group": "inactive"}
{"molecule": "CCNc1nc(NC(C)(C)C)nc(SC)n1", "group": "inactive"}
{"molecule": "CCSC(C)CC1CC(=O)C(C(CC)=NOC/C=C/Cl)=C(O)C1 (stereo unspecified)", "group": "inactive"}
{"molecule": "CC(C)CCCCCCOC(=O)c1ccccc1C(=O)OCCCCCCC(C)C", "group": "inactive"}
{"molecule": "CCCCCCCCC(=O)NCc1ccc(O)c(OC)c1", "group": "inactive"}
{"molecule": "CCCCC(CC)CO[N+](=O)[O-] (stereo unspecified)", "group": "inactive"}
{"molecule": "BrCCBr", "group": "inactive"}
{"molecule": "ClC(Cl)=C(Cl)C(Cl)=C(Cl)Cl", "group": "inactive"}
{"molecule": "O=[N+]([O-])c1ccc2c3c(cccc13)CC2", "group": "inactive"}
{"molecule": "CCOP(=S)(OCC)Oc1ccc(S(C)=O)cc1 (stereo unspecified)", "group": "inactive"}
